# MEASUREMENT_PROTOCOL: Stability in rat plasma
# STATED_CONDITIONS: after 4 hours, 37° C.
Where residual percentage in RAT PLASMA equals or exceeds 90%, the correct label is Y; where it does not, the label is N.

COMPOUND	CLASSIFICATION
FC(F)c1nnc(-c2ccc(Cn3cc(-c4ccc(NC5=NCCN5)cc4)nn3)cc2)o1	Y
CC(c1ccc(-c2nnc(C(F)F)o2)cc1)n1cc(-c2ccc(N)nc2)nn1 (centres unmarked)	N
FC(F)c1nnc(-c2ccc(Cn3cnc(-c4ccc(NC5=NCCN5)cc4)c3)nc2)o1	N
Cc1ncccc1-c1cn(Cc2c(F)cc(-c3nnc(C(F)F)o3)cc2F)nn1	N
Cn1c(N)nc2cc(-c3cn(Cc4ccc(-c5nnc(C(F)F)o5)cn4)nn3)ccc21	N
Nc1ccc(-c2cn(Cc3ccc(-c4nnc(C(F)F)o4)cn3)cn2)cn1	N
Fc1cc(-c2nnc(C(F)F)o2)cc(F)c1Cn1cc(-c2cnc3cccnn23)nn1	N
Nc1ccc(-c2cn(Cc3ccc(-c4nnc(C(F)F)o4)cc3)cn2)cn1	Y
O=C(Nc1cccc(-c2cn(Cc3ccc(-c4nnc(C(F)F)o4)c(F)c3)nn2)c1)N1CCOCC1	N
FC(F)c1nnc(-c2ccc(Cn3nnc(-c4csc5ccccc45)n3)cc2)o1	N
NC(=O)c1cc(-c2nnn(Cc3ccc(-c4nnc(C(F)F)o4)cc3)n2)cnc1N	N
COc1ncccc1-c1cn(Cc2ccc(-c3nnc(C(F)F)o3)cc2)nn1	N
Nc1nc2cc(-c3cn(Cc4ccc(-c5nnc(C(F)F)o5)cc4)nn3)ccc2[nH]1	N
CCNC(=O)c1cccc(-c2nnn(Cc3ccc(-c4nnc(C(F)F)o4)cc3)n2)c1	Y
